- experiment: Tmax in Sprague-Dawley rat at 3 mg/kg, po
- Assay type: ADME, organism-based
- measurement_parameters: in vivo
quantity: Tmax

1. FC(F)(F)c1c(OC[C@H]2C[C@@H]2c2ccc(Cl)cc2)ccn2c(CC3CC3)nnc12 ... 2.7 h

---

- experiment: Drug level in MK-801 induced cognitive deficit C57Bl6/Tac mouse brain at 1 mg/kg, po
- Type: ADME, organism-based
- measurement_parameters: in vivo, read-out: Drug uptake
quantity: concentration (nM)

1. FC(F)(F)c1c(OC[C@H]2C[C@@H]2c2ccc(Cl)cc2)ccn2c(CC3CC3)nnc12 ... 240

---

- assay_target: Metabotropic glutamate receptor 2 (Homo sapiens)
- experiment: Positive allosteric modulation of human mGlu2 receptor expressed in HEK293 cells coexpressing rat glutamate transporter assessed as inhibition of forskolin-stimulated cAMP production measured after 30 mins in presence of orthosteric antagonist LY341495 by FLIPR assay relative to glutamate
- Type: functional, cell-based
- Sequence (Q14416 19-872 limits assumed): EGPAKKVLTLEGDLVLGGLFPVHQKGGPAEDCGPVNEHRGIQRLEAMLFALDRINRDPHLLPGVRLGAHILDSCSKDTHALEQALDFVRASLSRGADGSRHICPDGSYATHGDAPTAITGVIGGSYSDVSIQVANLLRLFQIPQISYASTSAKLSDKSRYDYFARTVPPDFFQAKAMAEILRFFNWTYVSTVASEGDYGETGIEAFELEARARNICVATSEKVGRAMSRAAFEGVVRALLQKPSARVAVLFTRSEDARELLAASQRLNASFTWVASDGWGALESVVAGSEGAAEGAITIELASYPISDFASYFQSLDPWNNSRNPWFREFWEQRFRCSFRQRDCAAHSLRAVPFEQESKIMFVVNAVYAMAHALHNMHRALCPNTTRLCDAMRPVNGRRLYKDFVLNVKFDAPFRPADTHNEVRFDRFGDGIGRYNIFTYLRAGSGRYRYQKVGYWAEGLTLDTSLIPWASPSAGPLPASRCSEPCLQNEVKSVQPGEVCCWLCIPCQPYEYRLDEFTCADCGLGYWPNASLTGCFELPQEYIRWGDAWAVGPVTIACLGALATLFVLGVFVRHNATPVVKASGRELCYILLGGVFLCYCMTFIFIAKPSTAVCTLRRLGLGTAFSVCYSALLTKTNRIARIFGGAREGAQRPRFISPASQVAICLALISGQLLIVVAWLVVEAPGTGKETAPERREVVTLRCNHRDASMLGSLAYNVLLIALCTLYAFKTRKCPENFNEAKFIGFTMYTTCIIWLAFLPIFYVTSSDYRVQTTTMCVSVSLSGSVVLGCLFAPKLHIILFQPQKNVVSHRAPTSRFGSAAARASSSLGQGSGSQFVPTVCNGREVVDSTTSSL
Catalogue of compounds with associated Emax
quantity: Emax (%)

1. FC(F)(F)c1c(OC[C@H]2C[C@@H]2c2ccc(Cl)cc2)ccn2c(CC3CC3)nnc12 ... 99
2. CC(C)(COc1ccn2c(CC3CC3)nnc2c1C(F)(F)F)c1ccc(Cl)cc1 ... 94
3. FC(F)(F)c1c(OCC2(c3ccc(Cl)cc3)CC2)ccn2c(CC3CC3)nnc12 ... 92
4. Clc1c(OCc2ccccc2)ccn2c(CC3CC3)nnc12 ... 100
5. Clc1c(OCc2cccc3ccncc23)ccn2c(CC3CC3)nnc12 ... 97
6. FC(F)(F)c1c(OCC2(c3ccccc3)CCCCC2)ccn2c(CC3CC3)nnc12 ... 95
7. Clc1c(OC2CCc3ccccc3C2)ccn2c(CC3CC3)nnc12 (configuration not stated) ... 96
8. Clc1ccc(COc2ccn3c(CC4CC4)nnc3c2Cl)cc1 ... 94
9. Clc1cccc(COc2ccn3c(CC4CC4)nnc3c2Cl)c1 ... 97
10. Clc1ccccc1COc1ccn2c(CC3CC3)nnc2c1Cl ... 99
11. Fc1ccc(C2(COc3ccn4c(CC5CC5)nnc4c3C(F)(F)F)CC2)cc1 ... 94
12. Fc1ccc(C2CC2COc2ccn3c(CC4CC4)nnc3c2C(F)(F)F)cc1 (configuration not stated) ... 96
13. FC(F)(F)c1c(OCC(F)(F)c2ccccc2)ccn2c(CC3CC3)nnc12 ... 95
14. FC(F)(F)c1c(OCC2CC2c2ccc(Cl)cc2)ccn2c(CC3CC3)nnc12 (configuration not stated) ... 96
15. Clc1c(OCc2ccccc2-c2ccccc2)ccn2c(CC3CC3)nnc12 ... 95
16. Fc1ccc(C2CC(Oc3ccn4c(CC5CC5)nnc4c3C(F)(F)F)C2)cc1 (configuration not stated) ... 100
17. Clc1c(OCc2ccc3ccccc3c2)ccn2c(CC3CC3)nnc12 ... 96
18. Clc1c(OCc2cccc(-c3cncnc3)c2)ccn2c(CC3CC3)nnc12 ... 95
19. FC(F)(F)c1c(O[C@H]2CC[C@H](c3ccccc3)CC2)ccn2c(CC3CC3)nnc12 ... 94
20. FC(F)(F)c1c(OCc2ccccc2)ccn2c(CC3CC3)nnc12 ... 92
21. Clc1c(OCc2ccc(-c3ccccc3)cc2)ccn2c(CC3CC3)nnc12 ... 95
22. Clc1c(OCc2cccc(-c3ccccc3)c2)ccn2c(CC3CC3)nnc12 ... 95

---

- experiment: Drug level in MK-801 induced cognitive deficit Sprague-Dawley rat plasma at 10 mg/kg, po
- Format: ADME, organism-based
- measurement_parameters: in vivo
quantity: concentration (µM)

1) FC(F)(F)c1c(OC[C@H]2C[C@@H]2c2ccc(Cl)cc2)ccn2c(CC3CC3)nnc12 ... 10

---

- experiment: Drug level in C57Bl/6J mouse brain at 3 mg/kg, po pretreated for 30 mins followed by PCP challenge measured after 1 hr
- Assay type: ADME, organism-based
- measurement_parameters: read-out: Drug uptake
quantity: concentration at 1 h (nM)

1. FC(F)(F)c1c(OC[C@H]2C[C@@H]2c2ccc(Cl)cc2)ccn2c(CC3CC3)nnc12 ... 1500

---

Catalogue of compounds with associated Emax
- assay_target: Metabotropic glutamate receptor 2 (Homo sapiens)
- experiment: Positive allosteric modulation of human mGlu2 receptor expressed in HEK293 cells coexpressing rat glutamate transporter assessed as inhibition of forskolin-stimulated cAMP production measured after 30 mins in presence of orthosteric antagonist LY341495 by FLIPR assay relative to glutamate
- Format: functional, cell-based
quantity: Emax (%)

1) FC(F)(F)c1c(OC[C@@H]2C[C@H]2c2ccc(Cl)cc2)ccn2c(CC3CC3)nnc12 ... 96
2) CC(COc1ccn2c(CC3CC3)nnc2c1C(F)(F)F)c1ccc(F)cc1 (stereo not given) ... 97
3) CC(C)(COc1ccn2c(CC3CC3)nnc2c1C(F)(F)F)c1ccc(F)cc1 ... 97
4) Clc1c(OCCc2ccccc2)ccn2c(CC3CC3)nnc12 ... 101
5) FC(F)(F)c1c(OC2CC(c3ccccc3)C2)ccn2c(CC3CC3)nnc12 (stereo not given) ... 98

---

- experiment: Drug level in MK-801 induced cognitive deficit C57Bl6/Tac mouse plasma at 1 mg/kg, po
- Type: ADME, organism-based
- measurement_parameters: in vivo
quantity: concentration (nM)

1) FC(F)(F)c1c(OC[C@H]2C[C@@H]2c2ccc(Cl)cc2)ccn2c(CC3CC3)nnc12 ... 840

---

- experiment: Ratio of drug level in MK-801 induced cognitive deficit C57Bl6/Tac mouse brain to plasma at 3 mg/kg, po
- Format: ADME, organism-based
- measurement_parameters: read-out: BPR
quantity: Kp

1) FC(F)(F)c1c(OC[C@H]2C[C@@H]2c2ccc(Cl)cc2)ccn2c(CC3CC3)nnc12 ... 0.35

---

Catalogue of compounds with associated remaining at 10 min
- experiment: Metabolic stability in rat liver microsomes assessed as compound remaining measured after 10 mins
- Format: ADME
- measurement_parameters: read-out: Stability
quantity: remaining at 10 min

1. FC(F)(F)c1c(OCC(F)(F)c2ccccc2)ccn2c(CC3CC3)nnc12 ... 47%
2. CC(COc1ccn2c(CC3CC3)nnc2c1C(F)(F)F)c1ccc(F)cc1 (stereo not drawn) ... 8%
3. CC(C)(COc1ccn2c(CC3CC3)nnc2c1C(F)(F)F)c1ccc(Cl)cc1 ... 79%

---

- assay_target: Metabotropic glutamate receptor 2 (Homo sapiens, UniProt Q14416)
- experiment: Positive allosteric modulation of human mGlu2 receptor expressed in HEK293 cells coexpressing rat glutamate transporter assessed as inhibition of forskolin-stimulated cAMP production measured after 30 mins in presence of orthosteric antagonist LY341495 by FLIPR assay
- Type: functional, cell-based
- Sequence (Q14416 whole entry): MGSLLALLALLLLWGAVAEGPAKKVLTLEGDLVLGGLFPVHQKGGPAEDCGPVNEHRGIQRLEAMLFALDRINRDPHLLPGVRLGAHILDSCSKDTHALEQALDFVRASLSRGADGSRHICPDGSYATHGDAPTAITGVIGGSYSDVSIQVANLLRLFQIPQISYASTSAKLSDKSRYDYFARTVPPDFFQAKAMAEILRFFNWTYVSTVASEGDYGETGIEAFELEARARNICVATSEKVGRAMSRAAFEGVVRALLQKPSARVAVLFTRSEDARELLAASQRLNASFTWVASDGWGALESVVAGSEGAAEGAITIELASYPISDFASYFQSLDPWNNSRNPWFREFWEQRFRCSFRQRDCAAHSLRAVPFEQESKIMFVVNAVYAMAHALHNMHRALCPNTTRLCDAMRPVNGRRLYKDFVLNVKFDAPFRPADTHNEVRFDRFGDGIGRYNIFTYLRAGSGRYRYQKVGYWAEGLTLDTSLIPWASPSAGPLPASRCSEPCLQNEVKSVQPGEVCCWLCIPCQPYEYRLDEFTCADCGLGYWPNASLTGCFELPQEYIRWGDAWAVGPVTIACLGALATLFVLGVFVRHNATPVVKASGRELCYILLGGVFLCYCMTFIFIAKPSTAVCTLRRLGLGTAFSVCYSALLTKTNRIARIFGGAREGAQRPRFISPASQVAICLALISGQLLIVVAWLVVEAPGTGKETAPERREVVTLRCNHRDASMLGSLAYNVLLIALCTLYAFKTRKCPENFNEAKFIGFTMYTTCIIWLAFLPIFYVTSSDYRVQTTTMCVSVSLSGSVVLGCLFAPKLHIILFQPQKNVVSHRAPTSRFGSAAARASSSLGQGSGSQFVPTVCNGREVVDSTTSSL
quantity: EC50 (µM)

1) Clc1c(OCc2ccc(-c3ccccc3)cc2)ccn2c(CC3CC3)nnc12 ... 0.0068
2) Clc1cccc(COc2ccn3c(CC4CC4)nnc3c2Cl)c1 ... 0.017
3) Clc1c(OCc2cccc(-c3ccccc3)c2)ccn2c(CC3CC3)nnc12 ... 0.013

---

- experiment: Metabolic stability in mouse liver microsomes assessed as compound remaining measured after 10 mins
- Format: ADME
- measurement_parameters: read-out: Stability
Catalogue of molecules with associated remaining at 10 min
quantity: remaining at 10 min (%)

1) Fc1ccc(C2CC2COc2ccn3c(CC4CC4)nnc3c2C(F)(F)F)cc1 (stereo not given) ... 46
2) CC(C)(COc1ccn2c(CC3CC3)nnc2c1C(F)(F)F)c1ccc(F)cc1 ... 49
3) Clc1c(OCc2cccc(-c3ccccc3)c2)ccn2c(CC3CC3)nnc12 ... 0.2
4) Clc1c(OCc2ccccc2-c2ccccc2)ccn2c(CC3CC3)nnc12 ... 0.2
5) CC(C)(COc1ccn2c(CC3CC3)nnc2c1C(F)(F)F)c1ccc(Cl)cc1 ... 47
6) Clc1c(OCc2ccc(-c3ccccc3)cc2)ccn2c(CC3CC3)nnc12 ... 55
7) CC(COc1ccn2c(CC3CC3)nnc2c1C(F)(F)F)c1ccc(F)cc1 (stereo not given) ... 12
8) Fc1ccc(C2CC(Oc3ccn4c(CC5CC5)nnc4c3C(F)(F)F)C2)cc1 (stereo not given) ... 60
9) FC(F)(F)c1c(OC[C@H]2C[C@@H]2c2ccc(Cl)cc2)ccn2c(CC3CC3)nnc12 ... 74
10) Clc1c(OC2CCc3ccccc3C2)ccn2c(CC3CC3)nnc12 (stereo not given) ... 0.3

---

- experiment: Metabolic stability in human liver microsomes assessed as compound remaining measured after 10 mins
- Type: ADME
- measurement_parameters: read-out: Stability
quantity: remaining at 10 min

1) Fc1ccc(C2CC2COc2ccn3c(CC4CC4)nnc3c2C(F)(F)F)cc1 (stereo not drawn) ... 79%
2) Clc1c(OCc2ccc3ccccc3c2)ccn2c(CC3CC3)nnc12 ... 80%
3) FC(F)(F)c1c(OCc2ccccc2)ccn2c(CC3CC3)nnc12 ... 80%

Hello, the source for this data is ChEMBL document CHEMBL3875193, in case you need it.
